- protocol_notes: XTT proliferation (cytotoxicity) assay, normal fibroblasts
- Assay type: cell-based, mouse
- test_context: mouse, NIH-3T3 normal mouse fibroblasts; NIH3T3, pH 7.4, 24 h; read-out: Lethal Concentration (LC50)
Square brackets hold non-standard residues; d marks the D form. Peptide text beside a SMILES is read from it.
property_measured: CC50 at 24 h (µg/mL)
Write down the numeric answer in µg/mL and omit the unit.

// field: CC50 at 24 h; key: CC(C)C[C@H](NC(=O)[C@H](CC(C)C)NC(=O)[C@@H](CCCCN)NC(=O)[C@H](CC(C)C)NC(=O)[C@H](CC(C)C)NC(=O)[C@H](Cc1c[nH]cn1)NC(=O)[C@@H](CCCCN)NC(=O)[C@@H](CC(C)C)NC(=O)[C@H](CC(C)C)NC(=O)[C@@H](CCCCN)NC(=O)[C@H](Cc1c[nH]cn1)NC(=O)[C@H](CC(C)C)NC(=O)[C@@H](CC(C)C)NC(=O)[C@H](CCCCN)NC(=O)[C@@H](N)CC(C)C)C(N)=O [Peptide 13] (H-LK[dL]LH[dK]L[dL][dK]HLL[dK]LL-NH2) ; value = 50

// field: CC50 at 24 h; key: CC(C)C[C@H](NC(=O)[C@H](CC(C)C)NC(=O)[C@@H](CCCCN)NC(=O)[C@H](CC(C)C)NC(=O)[C@H](CC(C)C)NC(=O)[C@H](CCCCN)NC(=O)[C@@H](CCCCN)NC(=O)[C@@H](CC(C)C)NC(=O)[C@H](CC(C)C)NC(=O)[C@@H](CCCCN)NC(=O)[C@H](CCCCN)NC(=O)[C@H](CC(C)C)NC(=O)[C@@H](CC(C)C)NC(=O)[C@H](CCCCN)NC(=O)[C@@H](N)CC(C)C)C(N)=O [Peptide 1, reference compound] (H-LK[dL]LK[dK]L[dL][dK]KLL[dK]LL-NH2) ; value = 50

* * *

- Test system: CL1 human prostate carcinoma cell line
- protocol_notes: XTT proliferation (cytotoxicity) assay, CL1
- Type: cell-based
- test_context: CL1, pH 7.4, 24 h
Square brackets hold non-standard residues; d marks the D form. Peptide text beside a SMILES is read from it.
property_measured: Lethal Concentration (LC50) (µg/mL)
Write down the numeric answer in µg/mL and omit the unit.

// field: Lethal Concentration (LC50); key: CC(C)C[C@H](NC(=O)[C@H](CC(C)C)NC(=O)[C@@H](CCCCN)NC(=O)[C@H](CC(C)C)NC(=O)[C@H](CC(C)C)NC(=O)[C@H](Cc1c[nH]cn1)NC(=O)[C@@H](CCCCN)NC(=O)[C@@H](CC(C)C)NC(=O)[C@H](CC(C)C)NC(=O)[C@@H](CCCCN)NC(=O)[C@H](Cc1c[nH]cn1)NC(=O)[C@H](CC(C)C)NC(=O)[C@@H](CC(C)C)NC(=O)[C@H](CCCCN)NC(=O)[C@@H](N)CC(C)C)C(N)=O [Peptide 13] (H-LK[dL]LH[dK]L[dL][dK]HLL[dK]LL-NH2) ; value = 6.25

* * *

Hi there, I'd appreciate the recorded Lethal Concentration (LC50) for every entry that follows.
- Test system: Murine Lewis lung carcinoma (LLC) cell line
- protocol_notes: XTT proliferation (cytotoxicity) assay, LLC
- Format: cell-based
- test_context: pH 7.4, 24 h
Square brackets hold non-standard residues; d marks the D form. Peptide text beside a SMILES is read from it.
Please answer using the number first and the unit second.

The value of Lethal Concentration (LC50) recorded for CC(C)C[C@H](NC(=O)[C@H](CC(C)C)NC(=O)[C@@H](CCCCN)NC(=O)[C@H](CC(C)C)NC(=O)[C@H](CC(C)C)NC(=O)[C@H](Cc1c[nH]cn1)NC(=O)[C@@H](CCCCN)NC(=O)[C@@H](CC(C)C)NC(=O)[C@H](CC(C)C)NC(=O)[C@@H](CCCCN)NC(=O)[C@H](Cc1c[nH]cn1)NC(=O)[C@H](CC(C)C)NC(=O)[C@@H](CC(C)C)NC(=O)[C@H](CCCCN)NC(=O)[C@@H](N)CC(C)C)C(N)=O [Peptide 13] (H-LK[dL]LH[dK]L[dL][dK]HLL[dK]LL-NH2) when tested on Murine Lewis lung carcinoma (LLC) cell line reads 12.5 µg/mL

The value of Lethal Concentration (LC50) recorded for CC(C)C[C@H](NC(=O)[C@H](CC(C)C)NC(=O)[C@@H](CCCCN)NC(=O)[C@H](CC(C)C)NC(=O)[C@H](CC(C)C)NC(=O)[C@H](CCCCN)NC(=O)[C@@H](CCCCN)NC(=O)[C@@H](CC(C)C)NC(=O)[C@H](CC(C)C)NC(=O)[C@@H](CCCCN)NC(=O)[C@H](CCCCN)NC(=O)[C@H](CC(C)C)NC(=O)[C@@H](CC(C)C)NC(=O)[C@H](CCCCN)NC(=O)[C@@H](N)CC(C)C)C(N)=O [Peptide 1, reference compound] (H-LK[dL]LK[dK]L[dL][dK]KLL[dK]LL-NH2) when tested on Murine Lewis lung carcinoma (LLC) cell line reads 12.5 µg/mL

The value of Lethal Concentration (LC50) recorded for CC(C)C[C@H](NC(=O)[C@H](CC(C)C)NC(=O)[C@@H](Cc1c[nH]cn1)NC(=O)[C@H](CC(C)C)NC(=O)[C@H](CC(C)C)NC(=O)[C@H](Cc1c[nH]cn1)NC(=O)[C@@H](Cc1c[nH]cn1)NC(=O)[C@@H](CC(C)C)NC(=O)[C@H](CC(C)C)NC(=O)[C@@H](CCCCN)NC(=O)[C@H](Cc1c[nH]cn1)NC(=O)[C@H](CC(C)C)NC(=O)[C@@H](CC(C)C)NC(=O)[C@H](Cc1c[nH]cn1)NC(=O)[C@@H](N)CC(C)C)C(N)=O [Peptide 16] (H-LH[dL]LH[dK]L[dL][dH]HLL[dH]LL-NH2) when tested on Murine Lewis lung carcinoma (LLC) cell line reads 50 µg/mL
